biological target: Adrenergic receptor alpha-2 (Rattus norvegicus, UniProt P22086+P19328+P22909); assay: In vitro inhibition of [3H]clonidine from alpha-2 adrenergic receptor of rat cortex

# COMPOUND, READOUT UNITS, Ki
records = [
    ("CCCNS(=O)(=O)c1ccc2c(c1)CNC(CO)C2 (stereo not given)", "µM", 230),
    ("O=S(=O)(Nc1ccc(Cl)cc1)c1ccc2c(c1)CNC(CO)C2 (stereo not given)", "µM", 53),
    ("CCNS(=O)(=O)c1ccc2c(c1)CNC(CO)C2 (stereo not given)", "µM", 210),
    ("O=S(=O)(NCC(F)(F)F)c1ccc2c(c1)CNC(CO)C2 (stereo not given)", "µM", 340),
    ("O=S(=O)(c1ccc2c(c1)CNC(CO)C2)N1CCSCC1 (stereo not given)", "µM", 320),
]
